biological target: PDGF-BB (platelet-derived growth factor BB) (Homo sapiens); assay: cell_activity; details: NapdU at P; 2'-OMe 1,4,6,7,14,15,16,18,20,21; PDGFRb phosphorylation, Hs27
RECORDED_ENDPOINT: IC50
Kindly format the answer as number then unit.

Give recorded IC50 with PDGF-BB (platelet-derived growth factor BB) (Homo sapiens) for the following sequence: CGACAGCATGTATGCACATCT [5169-4_84]
3.3 nM

---

Tested on: VEGF-121 (Homo sapiens), P15692-9
Sequence: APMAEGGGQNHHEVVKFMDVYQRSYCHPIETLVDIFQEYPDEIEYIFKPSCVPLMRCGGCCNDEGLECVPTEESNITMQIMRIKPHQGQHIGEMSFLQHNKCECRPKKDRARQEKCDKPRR
Test: filter
Details: P=Nap-dU; C3 spacer at 44
RECORDED_ENDPOINT: Kd (nM)
Could you give me the number in nM? Just the number is fine.

Recorded Kd of CCCTCCATCAGCCGTTCAAGTGCTTGTAGGATTTAAATGGAATGGAGGA [4867-15_67] , please.
0.15
